# Tested on: HCT116
# TEST_DESCRIPTION: viability inhibition vs untreated; higher = more cytotoxic
# CONDITION_NOTES: genotype: MTA1-KO; 400 nM; 72 h
Counter-ions that a name gives are not always drawn.
Consider the following compounds; for each one, report its viability inhibition.
Give bare numbers, in %.

CCCCCCCCCCCCc1ccc(S(=O)(=O)Nc2nncs2)cc1 [PHT427]    -13

Fill in viability inhibition for each of the 3 compounds listed.
1. NS(=O)(=O)c1cc2c(cc1Cl)NC(CSCc1ccccc1)=NS2(=O)=O [Benzthiazide]
2. NS(=O)(=O)c1cc(Cl)c(Cl)c(S(N)(=O)=O)c1 [Dichlorphenamide]
3. O=C(Cc1cccc(OC(F)(F)F)c1)Nc1ccc(CCCCc2nnc(NC(=O)Cc3ccccn3)s2)nn1 [CB839]

Completion:
1: -6.12; 2: -0.404; 3: -14.1

Fill in viability inhibition for each of the 5 compounds listed.
1. COc1ccc(COc2cc3oc(=O)c4cc(C(C)O)ccc4c3cc2OC)cc1 (stereo not drawn) [Palomid 529]
2. O=C(/C=C/c1ccc2ccc(C(F)(F)F)cc2n1)c1ccncc1 [PFK158]
3. COc1ccc(Cc2cnc(N)nc2N)cc1OC [Diaveridine]
4. NCc1ccc(S(N)(=O)=O)cc1 [Mafenide hydrochloride]
5. NS(=O)(=O)c1cc2c(cc1Cl)NC=NS2(=O)=O [Chlorothiazide]

Completion:
1. 37.3
2. -31.5
3. -14.2
4. -16.5
5. -4.5

Fill in viability inhibition for each of the 7 compounds listed.
1. O=C1[C@H](CC[C@H](O)c2ccc(F)cc2)[C@@H](c2ccc(O)cc2)N1c1ccc(F)cc1 [Ezetimibe]
2. Nc1ccc(S(N)(=O)=O)cc1 [Sulfanilamide]
3. CCCC(=O)O[C@]1(C(=O)CO)CC[C@H]2[C@@H]3CCC4=CC(=O)CC[C@]4(C)[C@H]3[C@@H](O)C[C@@]21C [Hydrocortisone butyrate]
4. COc1cccc(-c2ccc(NC(=O)C3=C(C(=O)O)CCC3)c(F)c2)c1 [Vidofludimus]
5. COC1CCC(N2C(=O)CNc3ncc(-c4ccc(C(C)(C)O)nc4)nc32)CC1 (stereo not drawn) [CC223]
6. COc1cc(/C=C/C(=O)CC(=O)/C=C/c2ccc(O)c(OC)c2)ccc1O [Curcumin]
7. O=c1oc2cc(O)ccc2s1 [Tioxolone]

Completion:
[10.6, -27.6, -6.9, 15.2, -1.64, -19.6, -19]

---

# Tested on: HCT116
# TEST_DESCRIPTION: viability inhibition vs untreated; higher = more cytotoxic
# CONDITION_NOTES: genotype: MTA1-KO; 16 nM; 72 h
Consider the following molecules; for each one, report its viability inhibition.
Answers are plain numbers, in %.

Fill in viability inhibition for each of the 3 molecules listed.
1. Cc1ccc(Oc2nc3cc(-c4ccc(-c5ccccc5)cc4)c(Cl)cc3[nH]2)cc1C(=O)O
2. Cc1nc2ccc(CN(C)c3ccc(C(=O)N[C@@H](CCC(=O)O)C(=O)O)s3)cc2c(=O)[nH]1
3. CNC(=O)c1cccc(-c2ccc3c(N4CCOC[C@@H]4C)nc(N4CCOC[C@@H]4C)nc3n2)c1

Completion:
1: -12.7; 2: -4.56; 3: 16.2

Fill in viability inhibition for each of the 3 molecules listed.
1. COc1ccccc1OCC(O)CN1CCN(CC(=O)Nc2c(C)cccc2C)CC1 (stereo not given) [Ranolazine]
2. Nc1cc(C(F)(F)F)c(-c2nc(N3CCOCC3)nc(N3CCOCC3)n2)cn1
3. O=C(Nc1cccc(Nc2ncc(Br)c(NCCc3cnc[nH]3)n2)c1)N1CCCC1

Completion:
1: -0.081; 2: 23.9; 3: -9.54

Fill in viability inhibition for each of the 7 molecules listed.
1. C=CC[C@@H]1/C=C(\C)C[C@H](C)C[C@H](OC)[C@H]2O[C@@](O)(C(=O)C(=O)N3CCCC[C@H]3C(=O)O[C@H](/C(C)=C/[C@@H]3CC[C@@H](O)[C@H](OC)C3)[C@H](C)[C@@H](O)CC1=O)[C@H](C)C[C@@H]2OC
2. COc1ccc(COc2cc3oc(=O)c4cc(C(C)O)ccc4c3cc2OC)cc1 (stereo not given)
3. CC(C)c1ccc(C(=O)N=C(N)N)cc1S(C)(=O)=O [Cariporide]
4. O=C(O)C[C@H](O)C[C@H](O)/C=C/c1c(C2CC2)nc2ccccc2c1-c1ccc(F)cc1
5. CCN(CC)C(=S)SSC(=S)N(CC)CC
6. O=C(Nc1cccc(C(F)(F)F)c1)Nc1cc(S(=O)(=O)NC2CC2)ccc1-c1ccsc1
7. C#CCC(Cc1cnc2nc(N)nc(N)c2n1)c1ccc(C(=O)N[C@@H](CCC(=O)O)C(=O)O)cc1 (stereo not given in full) [Pralatrexate]

Completion:
1: -4.95; 2: -7.41; 3: -28.1; 4: -24.4; 5: -26.6; 6: 4.84; 7: 37.5

Fill in viability inhibition for each of the 2 molecules listed.
1. O=C(O)c1c[nH]c2cc(Cl)c(-c3ccc(C4(O)CCC4)cc3)cc12
2. CC(=O)OCC(=O)[C@@]1(O)CC[C@H]2[C@@H]3CCC4=CC(=O)C=C[C@]4(C)[C@H]3[C@@H](O)C[C@@]21C [Prednisolone-21-acetate]

Completion:
-7.04
-12.5

---

# System: HCT116
# TEST_DESCRIPTION: viability inhibition vs untreated; higher = more cytotoxic
# CONDITION_NOTES: genotype: MTA1-KO; 400 nM; 72 h
Where a name gives a salt, the structure may show the parent alone.
QUANTITY_NAME: viability inhibition (%)
Answers are plain numbers, in %.

Cc1nc2ccc(CN(C)c3ccc(C(=O)N[C@@H](CCC(=O)O)C(=O)O)s3)cc2c(=O)[nH]1 [Raltitrexed]    75.8
O=C(O)[C@@]1(CCCCCCOc2ccc(Cl)cc2)CO1 [(R)-Etomoxir sodium salt]    -17.4
C#CCC(Cc1cnc2nc(N)nc(N)c2n1)c1ccc(C(=O)N[C@@H](CCC(=O)O)C(=O)O)cc1 (some centres not stated) [Pralatrexate]    71.7
CC[C@H](C)C(=O)O[C@H]1C[C@H](O)C=C2C=C[C@H](C)[C@H](CC[C@@H](O)C[C@@H](O)CC(=O)O)[C@H]21 [Pravastatin sodium]    -12.8
CCN[C@H]1C[C@H](C)S(=O)(=O)c2sc(S(N)(=O)=O)cc21 [Dorzolamide hydrochloride]    -7.44

Fill in viability inhibition for each of the 7 compounds listed.
1. CCc1ccc(/C=C2/SC(=S)NC2=O)cc1
2. C/C(=C1/C(=O)Nc2ccc(NC(N)=O)cc21)c1ccc[nH]1 [BX517]
3. Cc1ccc(C(=O)Cn2c3c(sc2=N)CCCC3)cc1 [Pifithrin-α]
4. O=C(O)c1cccnc1Nc1cccc(C(F)(F)F)c1 [Niflumic acid]
5. O=[N+]([O-])c1ccc(Nc2nc(N3CCOCC3)nc(N3CCOCC3)n2)cc1 [MHY1485]
6. C/C(=N\NC(=O)c1cccc(S(=O)(=O)N2CCOCC2)c1)c1cc(Cl)ccc1O [SP2509]
7. CCC(C)(Oc1ccc(C2(c3ccc(OC(C)(CC)C(=O)O)cc3)CCCCC2)cc1)C(=O)O (configuration not stated) [Clinofibrate]

Completion:
[-9.11, -15, -7.19, -11.9, 13.3, 18, 19.9]

Fill in viability inhibition for each of the 5 compounds listed.
1. CNC(=O)c1cccc(-c2ccc3c(N4CCOC[C@@H]4C)nc(N4CCOC[C@@H]4C)nc3n2)c1 [Vistusertib]
2. CC(=O)OCC(=O)[C@@]1(O)CC[C@H]2[C@@H]3CCC4=CC(=O)C=C[C@]4(C)[C@H]3[C@@H](O)C[C@@]21C [Prednisolone-21-acetate]
3. c1cc(-c2cnn3cc(-c4ccc(OCCN5CCCCC5)cc4)cnc23)ccn1 [Dorsomorphin]
4. OCc1ccc(-c2nn(Cc3ccccc3)c3ccccc23)o1 [Lificiguat]
5. NS(=O)(=O)c1ccccc1 [Benzenesulfonamide]

Completion:
1. 63.1
2. -3.35
3. -12.4
4. 8.63
5. 4.06

---

# Tested on: HCT116
# TEST_DESCRIPTION: viability inhibition vs untreated; higher = more cytotoxic
# CONDITION_NOTES: genotype: MTA1-KO; 16 nM; 72 h
QUANTITY_NAME: viability inhibition (%)
Numbers only, in %.

Example results:
Cc1ccc(NC(=O)Nc2cc(-c3ccccc3-c3nn[nH]n3)ccc2N(CC(C)C)CC(C)C)cc1 [DO-IN-2]    -2.66
Cc1nc(-c2nc(-c3ccc(OC(F)(F)F)cc3)no2)nn1Cc1cccc(N2CCC(S(C)(=O)=O)CC2)c1    1.35
COc1ccc(-c2ccc3c(N4CCOCC4)nc(N4C[C@@H](C)O[C@@H](C)C4)nc3n2)cc1CO    14.6

Please turn your attention to the following entry.
Prompt: Form field: reported viability inhibition of CC(C)n1nc(-c2ccc3oc(N)nc3c2)c2c(N)ncnc21 [INK 128]
Completion: -1.98
